Source listed as PubChem BioAssay AID2060626.

viability, T/C listing for selected molecules.
system: 168753-222-R-J1-PDC complex spheroid viability; assay: Anticancer human tumor 168753-222-R-J1-PDC patient-derived bladder carcinoma cell line growth inhibition [CLK]; conditions: second compound 0.1 µM; first compound 0.01 µM; stronger effect = lower value;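 also: luminescence signal used as surrogate for viable cell amount; viability measured after seven days of drug exposure; 100% = DMSO vehicle control wells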

{"molecule": "COc1c(OCCCN2CCOCC2)ccc2c3n(c(=NC(=O)c4cnc(N)nc4)nc12)CCN3 + CN1CCN(c2cc(C(=O)Nc3cc4cc(-c5cnn(C)c5)ccc4cn3)ccn2)CC1", "quantity.unit": "%", "viability, T/C": 21.4}
{"molecule": "Cn1ncnc1[C@H]1c2n[nH]c(=O)c3cc(F)cc(c23)N[C@@H]1c1ccc(F)cc1 + CNC(=O)c1ccc(Nc2nc(OC3CCCC3)c3c(-c4ccc5nc(C)oc5c4)c[nH]c3n2)c(OC)c1", "quantity.unit": "%", "viability, T/C": 103}
{"molecule": "CCc1c2c(nc3ccc(O)cc13)-c1cc3c(c(=O)n1C2)COC(=O)[C@]3(O)CC + CNC(=O)c1ccc(Nc2nc(OC3CCCC3)c3c(-c4ccc5nc(C)oc5c4)c[nH]c3n2)c(OC)c1", "quantity.unit": "%", "viability, T/C": 87.4}
